Give measured minimal inhibitory concentrations MIC, M. fort. for each item. Keep answers brief.
system: M. fortuitum B; assay: MIC, micro broth dilution, M. fortuitum B; assay type: cell-based; settings: Mueller-Hinton broth
One number for each entry, in µg/mL.

Recorded minimal inhibitory concentrations MIC, M. fort., per entry:
smi=CN(C)c1ncnc(SC(=S)N2CCCC2)c1[N+](=O)[O-] recorded_measurement=1.56
smi=O=[N+]([O-])c1cnc(SC(=S)N2CCCC2)c([N+](=O)[O-])c1 recorded_measurement=3.12
smi=COc1ncnc(SC(=S)N2CCCC2)c1[N+](=O)[O-] recorded_measurement=1.56

Would you be so kind as to report minimal inhibitory concentrations MIC, M. fort. for each listed record?
1. CN(C)C(=S)Sc1c(C#N)cc([N+](=O)[O-])cc1[N+](=O)[O-]
2. CCN(CC)C(=S)Sc1ncnc(N(C)O)c1[N+](=O)[O-]

[6.25, 6.25]

====

test system: Mycobacterium smegmatis SG 987; assay: MIC, micro broth dilution, M. smegmatis SG 987; assay type: cell-based; settings: Mueller-Hinton broth
experimental_readout: minimal inhibitory concentrations MIC, SG 987 (µg/mL)
One number for each entry, in µg/mL.

Field: minimal inhibitory concentrations MIC, SG 987. Fill in for each record below.
1. NC(=O)c1cc([N+](=O)[O-])cc([N+](=O)[O-])c1SC(=S)N1CCCCCC1
2. NC(=O)c1cc([N+](=O)[O-])cc([N+](=O)[O-])c1SC(=S)N1CCCC1
3. CN(C)C(=S)Sc1c(C#N)cc([N+](=O)[O-])cc1[N+](=O)[O-]
4. CNc1ncnc(SC(=S)N(C)C)c1[N+](=O)[O-]

1. 6.25
2. 50
3. 3.12
4. 12.5

====

tested on: M. fortuitum B; assay: MIC, micro broth dilution, M. fortuitum B; assay type: cell-based; conditions: Mueller-Hinton broth
Label not fulfilled if minimal inhibitory concentrations MIC, M. fort. falls below 6 µg/mL; label fulfilled in every other case.

Check out these entries, answers already filled in.
smi=CCN(CC)C(=S)Sc1ncnc(NC)c1[N+](=O)[O-] tgt="M. fortuitum B" assigned_category=fulfilled
smi=CCN(CC)C(=S)Sc1ncnc(NC2CC2)c1[N+](=O)[O-] tgt="M. fortuitum B" assigned_category=fulfilled
smi=CNc1ncnc(SC(=S)N2CCCC2)c1[N+](=O)[O-] tgt="M. fortuitum B" assigned_category="not fulfilled"
smi=NC(=O)c1cc([N+](=O)[O-])cc([N+](=O)[O-])c1SC(=S)N1CCCC1 tgt="M. fortuitum B" assigned_category=fulfilled
smi=CN(C)C(=S)Sc1ncnc(N(C)C)c1[N+](=O)[O-] tgt="M. fortuitum B" assigned_category=fulfilled

Is it the case that CCOc1nc(C)nc(SC(=S)N2CCCC2)c1[N+](=O)[O-] has minimal inhibitory concentrations MIC, M. fort. reaching or exceeding 6 µg/mL?
fulfilled

Tell me whether minimal inhibitory concentrations MIC, M. fort. is at least 6 µg/mL here: CCN(CC)C(=S)Sc1c(C#N)cc([N+](=O)[O-])cc1[N+](=O)[O-]
fulfilled

Could you please find out whether CNc1ncnc(SC(=S)N(C)C)c1[N+](=O)[O-] has minimal inhibitory concentrations MIC, M. fort. that meets 6 µg/mL or exceeds it?
fulfilled

Does CCOc1nc(C)nc(SC(=S)N(CC)CC)c1[N+](=O)[O-] have a reported minimal inhibitory concentrations MIC, M. fort. of at least 6 µg/mL?
fulfilled

Check this compound for minimal inhibitory concentrations MIC, M. fort. at or above 6 µg/mL: CCCOc1ncnc(SC(=S)N(C)C)c1[N+](=O)[O-]
not fulfilled

Confirm if minimal inhibitory concentrations MIC, M. fort. reported for the compound NC(=O)c1cc([N+](=O)[O-])cc([N+](=O)[O-])c1SC(=S)N1CCCCCC1 is 6 µg/mL or above.
not fulfilled

Hi, just wondering whether COc1ncnc(SC(=S)N(C)C)c1[N+](=O)[O-] shows minimal inhibitory concentrations MIC, M. fort. of 6 µg/mL or higher.
not fulfilled
